Overview of reported AC50 across a group of compounds:
# Measured Target: Mu-type opioid receptor (Homo sapiens)
# Sequence (P35372 whole entry): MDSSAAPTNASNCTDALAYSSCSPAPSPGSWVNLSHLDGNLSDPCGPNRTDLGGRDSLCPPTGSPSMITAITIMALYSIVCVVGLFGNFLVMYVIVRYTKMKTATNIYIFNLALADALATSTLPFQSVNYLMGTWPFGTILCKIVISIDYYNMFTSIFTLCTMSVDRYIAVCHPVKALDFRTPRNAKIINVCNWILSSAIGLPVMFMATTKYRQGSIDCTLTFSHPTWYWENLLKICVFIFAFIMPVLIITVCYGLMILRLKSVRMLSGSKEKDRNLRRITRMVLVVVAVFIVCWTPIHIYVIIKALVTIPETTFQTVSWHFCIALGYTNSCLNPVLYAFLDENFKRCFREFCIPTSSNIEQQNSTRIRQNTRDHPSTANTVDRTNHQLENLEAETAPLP
# Run Description: biochemical
# Type: functional

Examples with their reported AC50 follow.
Prompt: What AC50 value was documented for this compound, COc1cccc(N(C)C(=S)Oc2ccc3c(c2)CCCC3)n1 [LIRANAFTATE] ?
Response: > 30 µM

Prompt: What AC50 value was documented for this compound, Oc1c(I)cc(Cl)c2cccnc12 ?
Response: > 30 µM

// next item, AC50 requested
Prompt: What AC50 value was documented for this compound, CC(C)=CCOc1ccc(/C=C/C(=O)c2ccc(OCC=C(C)C)cc2OCC(=O)O)cc1 ?
Response: > 30 µM
